# Tested on: WiDr
# Test method notes: Antiproliferative SRB assay (NCI protocol), WiDr
# Type: cell-based, human
# Test conditions: CC50 splenocytes / GI50 WiDr
Measurement name: Selectivity index (SI) on tumor cells
Reply briefly: the number, and no unit.

Prompt: Look up Selectivity index (SI) on tumor cells for this compound: C=C(Cn1cc(-c2ccccc2)nn1)[C@@H]1CC[C@@]2(C)CCC[C@@](C)(O)C2C1 (stereo partly shown)
Response: 4.6

Prompt: Look up Selectivity index (SI) on tumor cells for this compound: C=C(C(=O)N(c1ccccc1)C(C)(C)C(=O)NC(C)(C)C)C1CCC2(C)CCCC(C)(O)C2C1 (stereo not shown)
Response: 1.7

Prompt: Look up Selectivity index (SI) on tumor cells for this compound: C=C(C(=O)N(Cc1ccccc1)C(C)(C)C(=O)NCc1ccccc1)[C@@H]1CCC2=CC(=O)C[C@H](C)[C@@]2(C)C1
Response: 1.0

Prompt: Look up Selectivity index (SI) on tumor cells for this compound: C=C(C(=O)N(Cc1ccccc1)C(C)(C)C(=O)NCc1ccccc1)C1CCC2(C)CCCC(C)(O)C2C1 (stereo not shown)
Response: 2.5

Prompt: Look up Selectivity index (SI) on tumor cells for this compound: C=C(C(=O)N(c1ccccc1)C(C)(C)C(=O)NCc1ccccc1)[C@@H]1CCC2=CC(=O)C[C@H](C)[C@@]2(C)C1
Response: 2.4

Prompt: Look up Selectivity index (SI) on tumor cells for this compound: C#CCCCc1cn(CC(=C)[C@@H]2CC[C@@]3(C)CCC[C@@](C)(O)C3C2)nn1 (stereo partly shown)
Response: 1.3

Prompt: Look up Selectivity index (SI) on tumor cells for this compound: C=C(C(=O)N(c1ccccc1)C(C)(C)C(=O)NC(C)(C)C)[C@@H]1CCC2=CC(=O)C[C@H](C)[C@@]2(C)C1
Response: 0.2

---

Answer each item with its documented GI50.
# System: A549
# Test method notes: Antiproliferative SRB assay (NCI protocol), A549
# Type: cell-based, human
# Test conditions: Homo sapiens; A549 (lung), 48 h drug exposure, SRB; ± SD
Give your result in µM as a bare value.

Prompt: Look up GI50 for this molecule: C=C(C(=O)N(c1ccccc1)C(C)(C)C(=O)NC(C)(C)C)[C@@H]1CCC2=CC(=O)C[C@H](C)[C@@]2(C)C1 [Compound 4]
Response: 68

Prompt: Look up GI50 for this molecule: C=C(C(=O)N(c1ccccc1)C(C)(C)C(=O)NCc1ccccc1)[C@@H]1CCC2=CC(=O)C[C@H](C)[C@@]2(C)C1 [Compound 6]
Response: 33

Prompt: Look up GI50 for this molecule: C=C(C(=O)N(c1ccccc1)C(C)(C)C(=O)NCc1ccccc1)C1CCC2(C)CCCC(C)(O)C2C1 (centres unmarked) [Compound 12]
Response: 22

Prompt: Look up GI50 for this molecule: C=C(C(=O)N(c1ccccc1)C(C)(C)C(=O)NC1CCCCC1)C1CCC2(C)CCCC(C)(O)C2C1 (centres unmarked) [Compound 14]
Response: 22

Prompt: Look up GI50 for this molecule: C=C(C(=O)N(Cc1ccccc1)C(C)(C)C(=O)NCc1ccccc1)[C@@H]1CCC2=CC(=O)C[C@H](C)[C@@]2(C)C1 [Compound 7]
Response: 27

---

Answer each item with its documented GI50.
# Test system: HBL-100
# Test method notes: Antiproliferative SRB assay (NCI protocol), HBL-100
# Assay type: cell-based, human
# Test conditions: Homo sapiens; HBL-100 (breast), 48 h drug exposure, SRB; ± SD
Give your result in µM as a bare value.

Prompt: Hello, I am looking for reported GI50 with HBL-100 for C=C(C(=O)N(Cc1ccccc1)C(C)(C)C(=O)NC(C)(C)C)C1CCC2(C)CCCC(C)(O)C2C1 (stereo not drawn) . Could you help?
Response: 33

Prompt: Hello, I am looking for reported GI50 with HBL-100 for C=C(C(=O)N(Cc1ccccc1)C(C)(C)C(=O)NCc1ccccc1)[C@@H]1CCC2=CC(=O)C[C@H](C)[C@@]2(C)C1 . Could you help?
Response: 41

Prompt: Hello, I am looking for reported GI50 with HBL-100 for C=C(C(=O)N(c1ccccc1)C(C)(C)C(=O)NCc1ccccc1)C1CCC2(C)CCCC(C)(O)C2C1 (stereo not drawn) . Could you help?
Response: 20

Prompt: Hello, I am looking for reported GI50 with HBL-100 for C=C(C(=O)N(c1ccccc1)C(C)(C)C(=O)NC(C)(C)C)C1CCC2(C)CCCC(C)(O)C2C1 (stereo not drawn) . Could you help?
Response: 64

Prompt: Hello, I am looking for reported GI50 with HBL-100 for C=C(C(=O)N(c1ccccc1)C(C)(C)C(=O)NC1CCCCC1)C1CCC2(C)CCCC(C)(O)C2C1 (stereo not drawn) . Could you help?
Response: 20

Prompt: Hello, I am looking for reported GI50 with HBL-100 for C=C(C(=O)N(Cc1ccccc1)C(C)(C)C(=O)NCc1ccccc1)C1CCC2(C)CCCC(C)(O)C2C1 (stereo not drawn) . Could you help?
Response: 13

Prompt: Hello, I am looking for reported GI50 with HBL-100 for C=C(C(=O)N(Cc1ccccc1)C(C)(C)C(=O)NC1CCCCC1)C1CCC2(C)CCCC(C)(O)C2C1 (stereo not drawn) . Could you help?
Response: 19

Prompt: Hello, I am looking for reported GI50 with HBL-100 for C=C(C(=O)N(c1ccccc1)C(C)(C)C(=O)NC1CCCCC1)[C@@H]1CCC2=CC(=O)C[C@H](C)[C@@]2(C)C1 . Could you help?
Response: 37

Prompt: Hello, I am looking for reported GI50 with HBL-100 for C=C(C(=O)N(c1ccccc1)C(C)(C)C(=O)NCc1ccccc1)[C@@H]1CCC2=CC(=O)C[C@H](C)[C@@]2(C)C1 . Could you help?
Response: 61

Prompt: Hello, I am looking for reported GI50 with HBL-100 for C=C(C(=O)N(Cc1ccccc1)C(C)(C)C(=O)NC1CCCCC1)[C@@H]1CCC2=CC(=O)C[C@H](C)[C@@]2(C)C1 . Could you help?
Response: 47

These data points were gathered from paper PMC9143450.
